Attribute: displacement
molecular target: Bcl-2-like protein 10 (Homo sapiens) (UniProt Q9HD36); test: TR3 peptide-Bcl-B binding displacers, biochemical primary FP assay, phenotype converters (AID 1240); conditions: GST-Bcl-B / FITC-TR3 peptide fluorescence polarization; stronger effect = higher value; compound at 3.75 mg/L;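 further: 0% = Bcl-B with tracer peptide and DMSO and 100% = tracer peptide lacking Bcl-B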
Sequence (Q9HD36 whole entry, looked up): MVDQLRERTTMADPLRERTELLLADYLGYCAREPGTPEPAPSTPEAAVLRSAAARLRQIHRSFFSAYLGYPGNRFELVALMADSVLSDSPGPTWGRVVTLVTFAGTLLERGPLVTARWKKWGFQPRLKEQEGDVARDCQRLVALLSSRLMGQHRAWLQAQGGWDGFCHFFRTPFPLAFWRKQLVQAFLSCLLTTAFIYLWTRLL
The whole screen tested about 50,000 compounds, of which about 800 (1.6%) showed an effect of 50% or more. This is one part of a sample in which strong results are shown more often than they occur.

COMPOUND | displacement (%)
CCOc1ccccc1C=Nc1ccccc1C(=O)Nc1ccccc1 | -7.9
COc1cc(OC)c(C=Nc2ccccc2C(=O)Nc2ccccc2)cc1Br | -6
Cc1cc(NC(=O)c2cc(-c3ccccc3)nc3ccccc23)no1 | 3.8
O=C(CSCC(=O)Nc1cccc(C(F)(F)F)c1)Nc1ccccc1 | -10.4
Cc1ccc(-n2c(O)c(/C=N/n3cnnc3)c3ccccc3c2=O)cc1 | 5.8
N/C(=N/S(=O)(=O)c1ccc(Br)cc1)c1ccccc1 | 8.5
CN(C)/C(=N\S(=O)(=O)c1ccc(Br)cc1)c1ccccc1 | 96.8
COc1ccccc1N=Cc1c(O)c(C(=O)Nc2ccccc2)cc2ccccc12 | 105
Cc1ccc(C=C2C(=O)c3ccccc3C2=O)o1 | 10.9
COc1cccc(N2C(=O)C(=O)/C(=C(\O)c3ccccc3)C2c2ccc([N+](=O)[O-])cc2)c1 (stereo unspecified) | 4.1
Cc1ccc(S(=O)(=O)/N=C(\c2ccccc2)N(C)C)cc1 | 13.2
